Recorded values, source patent US9944666B2.

pIC50: −log10 of the molar value.
Target or system Human ATX protein (Homo sapiens); recorded quantity pIC50.
quantityKind: pIC50

C[C@H]1CC[C@@H](Oc2ccc3cc(CN4C5CCCC4CC(C(=O)O)C5)ncc3c2Br)CC1 (stereo partly shown) : ≥ 6.30
CC[C@H]1CC[C@@H](Oc2ccc3cc(C(=O)N4C5CCCC4CC(C(=O)O)C5)ccc3c2C(F)(F)F)CC1 (stereo partly shown) : ≥ 7.00
O=C(O)C1CCCC2CCN(Cc3ccc4c(C(F)(F)F)c(O[C@H]5CC[C@@H](C(F)(F)F)CC5)ccc4c3)CC21 (relative stereo) : ≥ 6.60
C[C@H]1CC[C@@H](Oc2ccc3cc(CN4C5CCCC4CC(C(=O)O)C5)ccc3c2C(F)(F)F)CC1 (stereo partly shown) : ≥ 7.00

----------
- measurementTarget: UniProt Q13822
quantityKind: IC50

CC(c1ccc2c(Cl)c(O[C@H]3CC[C@@H](C)CC3)ccc2c1)N1C2CCC1CC(C(=O)O)C2 (stereo partly shown) : ≤ 250 nM
CC(c1ccc2c(C(F)F)c(O[C@H]3CC[C@@H](C)CC3)ccc2c1)N1C2CCCC1CC(C(=O)O)C2 (single isomer, unassigned; enantiomer 1) [Example 138] : ≤ 100 nM
C[C@H](c1ccc2c(C(F)(F)F)c(O[C@H]3CC[C@@H](C(F)(F)F)CC3)ccc2c1)N1C2CCCC1CC(C(=O)O)C2 (single isomer, unassigned) : ≤ 100 nM
CC[C@H]1CC[C@@H](Oc2ccc3cc(C(=O)N4C5CCC4CC(C(=O)O)C5)ccc3c2Cl)CC1 (stereo partly shown) : ≤ 500 nM
CCC(c1ccc2c(C(F)(F)F)c(O[C@H]3CC[C@@H](C(F)(F)F)CC3)ccc2c1)N1C2CCC1CC(C(=O)O)C2 (relative stereo) : ≤ 100 nM
COC(=O)C1CC2CCC(C1)N2C(=O)c1ccc2c(C(F)(F)F)c(N[C@H]3CC[C@@H](C(F)(F)F)CC3)ccc2c1 (stereo partly shown) : ≤ 250 nM
CC(c1ccc2c(C#N)c(O[C@H]3CC[C@@H](C)CC3)ccc2c1)N1C2CCC1CC(C(=O)O)C2 (stereo partly shown) : ≤ 250 nM
O=C(O)C1CC2CCCC(C1)N2C(=O)c1ccc2c(C(F)(F)F)c(O[C@H]3CC[C@@H](C(F)(F)F)CC3)ccc2c1 (stereo partly shown) : ≤ 100 nM
O=C(O)C1CC2CCCC(C1)N2C(=O)c1ccc2c(C(F)(F)F)c(N[C@H]3CC[C@@H](C(F)(F)F)CC3)ccc2c1 (stereo partly shown) : ≤ 100 nM
O=C1CC2CC(C(=O)O)CC(C1)N2Cc1ccc2c(C(F)(F)F)c(O[C@H]3CC[C@@H](C(F)(F)F)CC3)ccc2c1 (relative stereo) : ≤ 500 nM
CC[C@H]1CC[C@@H](Oc2ccc3nc(NC4C5CCC4CC(C(=O)O)C5)ccc3c2C(F)(F)F)CC1 (stereo partly shown) : ≤ 100 nM
CCC1CCC(Oc2ccc3cc(C(CC)N4C5CCCC4CC(C(=O)O)C5)ccc3c2C(F)(F)F)CC1 (stereo not shown) : ≤ 250 nM
C[C@H](c1ccc2c(Cl)c(O[C@H]3CC[C@@H](C(F)(F)F)CC3)ccc2c1)N1C2CCCC1CC(C(=O)O)C2 (single isomer, unassigned) : ≤ 100 nM
CC[C@H]1CC[C@@H](Oc2ccc3cc([C@@H](C)N4C5CCCC4CC(C(=O)O)C5)ccc3c2Cl)CC1 (single isomer, unassigned) : ≤ 100 nM
C[C@H]1CC[C@@H](Oc2ccc3cc(CN4C5CCC4CC(C(=O)O)C5)ccc3c2C(F)F)CC1 (relative stereo) : ≤ 100 nM
O=C(O)C1CC2CCCC(C1)N2C(=O)Cc1ccc2c(C(F)(F)F)c(O[C@H]3CC[C@@H](C(F)(F)F)CC3)ccc2c1 (stereo partly shown) : ≤ 500 nM
C[C@H]1CC[C@@H](Oc2ccc3cc(CN4C5COCC4CC(C(=O)O)C5)ccc3c2C(F)(F)F)CC1 (relative stereo) : ≤ 250 nM
CC(c1ccc2c(C#N)c(O[C@H]3CC[C@@H](C(F)(F)F)CC3)ccc2c1)N1C2CCCC1CC(C(=O)O)C2 (stereo partly shown) : ≤ 100 nM
C[C@H]1CC[C@@H](Oc2ccc3cc(C(=O)N4C5CCC4CC(C(=O)O)C5)ccc3c2C(F)(F)F)CC1 (stereo partly shown) : ≤ 100 nM
CCC(c1ccc2c(C(F)(F)F)c(O[C@H]3CC[C@@H](C)CC3)ccc2c1)N1C2CCC1CC(C(=O)O)C2 (relative stereo) : ≤ 100 nM
CC(c1ccc2c(C(F)(F)F)c(O[C@H]3CC[C@@H](C)CC3)ccc2c1)N1C2CCCC1CC(C(=O)O)C2 (stereo partly shown) [Example 93] : ≤ 100 nM
O=C(O)C1CC2CCC(C1)N2C(=O)c1ccc2c(Cl)c(O[C@H]3CC[C@@H](C(F)(F)F)CC3)ccc2c1 (stereo partly shown) : ≤ 250 nM
CC(c1ccc2c(Cl)c(O[C@H]3CC[C@@H](C(F)(F)F)CC3)ccc2c1)N1C2CCCC1CC(C(=O)O)C2 (stereo partly shown) : ≤ 100 nM
C[C@H]1CC[C@@H](Oc2ccc3cc(C(C(=O)O)N4C5CCCC4CCC5)ccc3c2C(F)(F)F)CC1 (stereo partly shown) : ≤ 250 nM
CC(c1ccc2c(C(F)(F)F)c(O[C@H]3CC[C@@H](C)CC3)ccc2c1)N1C2CCC1CC(C(=O)O)C2 (single isomer, unassigned; enantiomer 1) [Example 130] : ≤ 250 nM
